- target desc: Adenosine A2A receptor (Homo sapiens)
- Sequence (P29274 whole entry): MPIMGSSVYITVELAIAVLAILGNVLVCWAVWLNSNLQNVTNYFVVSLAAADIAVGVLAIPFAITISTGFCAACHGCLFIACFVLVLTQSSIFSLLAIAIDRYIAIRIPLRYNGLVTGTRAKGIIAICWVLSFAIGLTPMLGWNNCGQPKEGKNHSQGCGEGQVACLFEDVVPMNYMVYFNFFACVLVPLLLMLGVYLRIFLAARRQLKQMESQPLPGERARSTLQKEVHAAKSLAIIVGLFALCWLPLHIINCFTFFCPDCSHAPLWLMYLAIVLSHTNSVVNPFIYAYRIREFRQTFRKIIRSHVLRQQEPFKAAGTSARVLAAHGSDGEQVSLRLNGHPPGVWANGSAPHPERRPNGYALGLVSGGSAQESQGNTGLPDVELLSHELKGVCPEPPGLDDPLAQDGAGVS
- test method notes: Adenosine A2A receptor competitive binding assay (Tag-lite HTRF)
- measurement parameters: Tag-lite adenosine A2A receptor ligand binding, HTRF
measured parameter: pIC50
Please treat pIC50 as minus the base-10 logarithm of the molar concentration.

Would you please look over these solved cases?
| molecule | target desc | pIC50 |
| --- | --- | --- |
| Cc1cc(-c2c(O)nc(N)nc2-c2ccc(F)cc2)cc(C(F)F)n1 [Example 206] | Adenosine A2A receptor (Homo sapiens) | 8.04 |
| CCn1nnnc1COc1nc(N)nc(-c2ccc(F)cc2)c1-c1cc(C)nc(C(F)F)c1 [Example 295] | Adenosine A2A receptor (Homo sapiens) | 8.13 |
| Cc1cc(-c2c(OCc3cccc(C(C)(C)O)n3)nc(N)nc2-c2ccc(F)cc2)cc(C(F)F)n1 [Example 225] | Adenosine A2A receptor (Homo sapiens) | 7.74 |
| CCn1cnc(COc2nc(N)nc(-c3ccc(F)cc3)c2-c2cc(C)nc(C(F)F)c2)n1 [Example 221] | Adenosine A2A receptor (Homo sapiens) | 7.62 |
| Cc1cc(-c2c(OCc3nccn3CC(C)C(=O)O)nc(N)nc2-c2ccc(F)cc2)cc(C(F)F)n1 (centres unmarked) [Example 207] | Adenosine A2A receptor (Homo sapiens) | 7.55 |
| Cc1cc(-c2c(OCc3cccnn3)nc(N)nc2-c2ccc(F)cc2)cc(C(F)F)n1 [Example 223] | Adenosine A2A receptor (Homo sapiens) | 8.39 |
| Cc1cc(-c2c(OCc3ccn(CC4CC4)n3)nc(N)nc2-c2ccc(F)cc2)cc(C(F)F)n1 [Example 214] | Adenosine A2A receptor (Homo sapiens) | 8.35 |

Okay, next one:
// query pIC50 value for entry Cc1cc(-c2c(OCc3cc(C(C)(C)O)ccn3)nc(N)nc2-c2ccc(F)cc2)cc(C(F)F)n1 [Example 224]
8.02

Entry source: patent US20210355104A1
